- Test system: Rattus norvegicus
- test: Inhibition of passive cutaneous anaphylaxis (PCA) reaction in rats, peroral administration 5 mg/kg
- Type: functional
- reported_conditions: route oral
A collection of compounds and their measured inhibition in vivo at 5 mg/kg
outcome_measure: inhibition in vivo at 5 mg/kg (%)

{"columns": ["smiles_input", "result_units", "readout_value"],
 "data": [
  ["Cc1cccc2c(O)n3nc(C(=O)Nc4nn[nH]n4)cc3nc12", "%", 9],
  ["Oc1c2cc(Cl)ccc2nc2cc(-c3nn[nH]n3)nn12", "%", 1],
  ["Cn1c2ccc(F)cc2c(=O)n2nc(-c3nn[nH]n3)cc12", "%", 8],
  ["COc1ccc2c(c1)c(=O)n1nc(C(=O)O)cc1n2C", "%", 4],
  ["Cn1c2ccc(N)cc2c(=O)n2nc(C(=O)O)cc12", "%", 0],
  ["COc1cccc2c(O)n3nc(-c4nn[nH]n4)cc3nc12", "%", 3]
]}

Values compiled from ChEMBL document CHEMBL1121643.
